molecular target: SARS-CoV-2 3CL protease (Severe acute respiratory syndrome coronavirus 2, UniProt P0DTD1); construct: measures the activity of full-length SARS-CoV-2 3CL protease; experiment: SARS-CoV-2 Coronavirus 3C Protease FRET Assay; assay type: biochemical; settings: Examples 14-78 and 114 (second head of Table 2); Morrison equation fit, 15 nM enzyme, 25 μM peptide substrate; read-out: Geometric Mean Ki (nM) IC50
MEASUREMENT_TYPE: Ki (nM)
Unit nM implied. Number only.

Item: CC(C)[C@H](NS(=O)(=O)C(F)(F)F)C(=O)N1C[C@H]2[C@@H]([C@H]1C(=O)N[C@@H](C[C@@H]1CCNC1=O)C(=O)COc1cccc(Cl)c1)C2(C)C [Example 40] | Ki: 4.22

Entry CC(C)[C@H](NC(=O)C(F)(F)F)C(=O)N1C[C@H]2[C@@H]([C@H]1C(=O)N[C@@H](C[C@@H]1CCNC1=O)C(=O)COc1nnc3c(F)cccn13)C2(C)C [Example 75] , Ki reported as 2900

Ki in this record for CC(C)[C@H](NC(=O)C(F)(F)F)C(=O)N1C[C@H]2[C@@H]([C@H]1C(=O)N[C@@H](C[C@@H]1CCNC1=O)C(=O)COc1cnsn1)C2(C)C [Example 62] : 55.7

Measured Ki of CC(C)[C@H](NS(C)(=O)=O)C(=O)N1CCC2(CC2)C[C@H]1C(=O)N[C@@H](C[C@@H]1CCNC1=O)C(=O)COc1ccc(F)cc1F (single isomer, unassigned) [Example 66] : 15.7

The molecule listed as CCc1c(OCC(=O)[C@H](C[C@@H]2CCNC2=O)NC(=O)[C@@H]2[C@@H]3[C@H](CN2C(=O)[C@@H](NC(=O)C(F)(F)F)C(C)C)C3(C)C)noc1C [Example 67] has a reported Ki of 107

###

tested on: SARS-CoV-2 (USA_WA1/2020); test: Antiviral Activity from SARS-CoV-2 Infection (cytopathic effect, Cell Titer-Glo); assay type: cell-based; details: Severe acute respiratory syndrome coronavirus 2, Vero C1008, 72 h, VeroE6 cells enriched for hACE2, MOI 0.002, 3-day incubation; tested alone or with P-gp inhibitor CP-100356 2 μM (table does not say which); read-out: Geometric Mean EC50
Where a name gives a salt, the structure may show the parent alone.
Recorded pEC50 by entry
The read-out pEC50 is expressed as -log10 of concentration in moles per litre.

Use the examples below as a reference point.
MOLECULE | DATA_VALUE
CC(C)(C)[C@H](NS(=O)(=O)C(F)(F)F)C(=O)N1C[C@H]2[C@@H]([C@H]1C(=O)N[C@@H](C[C@@H]1CC(O)NC1=O)C(=O)COc1ccc(F)cc1F)C2(C)C (stereo partly drawn) | 5.86
Cc1ccc2nc(OCC(=O)[C@H](C[C@@H]3CCNC3=O)NC(=O)[C@@H]3[C@@H]4[C@H](CN3C(=O)[C@@H](NC(=O)C(F)(F)F)C(C)C)C4(C)C)oc2c1 | 4.72

Looking up CC(C)[C@H](NC(=O)C(F)(F)F)C(=O)N1C[C@H]2[C@@H]([C@H]1C(=O)N[C@@H](C[C@@H]1CCNC1=O)C(=O)COc1cc(C(F)(F)F)nn1C)C2(C)C [Example 9, trifluoroacetate salt] , I see its pEC50 listed as 6.58
